Biological target: ERK2 (Homo sapiens)
Construct: purchased Jubilant Biosys
Sequence (P28482 whole entry): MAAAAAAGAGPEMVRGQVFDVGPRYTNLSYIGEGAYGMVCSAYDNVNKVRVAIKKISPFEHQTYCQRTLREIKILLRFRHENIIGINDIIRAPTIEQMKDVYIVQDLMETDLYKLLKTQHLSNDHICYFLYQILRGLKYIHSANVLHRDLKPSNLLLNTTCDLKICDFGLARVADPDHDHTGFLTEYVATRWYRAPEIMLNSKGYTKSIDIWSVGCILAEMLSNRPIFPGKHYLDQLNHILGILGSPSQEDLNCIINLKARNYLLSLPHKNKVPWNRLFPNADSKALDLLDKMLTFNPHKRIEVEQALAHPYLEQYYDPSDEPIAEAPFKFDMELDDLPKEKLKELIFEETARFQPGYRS
Test: ERK2 HTRF (biochemical) assay
Conditions: HTRF
Source text: ERK1 and ERK2 HTRF (Biochemical) Assays These assays employed a homogeneous time resolved fluorescence (HTRF) technique. […] Plate was read using Pherastar in HTRF mode (excitation 337 nm, emission 665 & 620 nm). The IC50 values (half maximal inhibitory concentration values) were subsequently determined using a sigmoidal dose-response curve (variable slope) in GraphPad Prism® 5 software.
measuredParameter: IC50

>>> df
                                    molecule  observedmeasurement
 0  O=C(Nc1cnn(-c2ccnc(NC3CC3)n2)c1)N[C@H](CO)c1cccc(Cl)c1 [Compound 6]              ≤ 50 nM
 1  Cc1cnc(Nc2ccc3c(c2)OCO3)nc1-n1ccc(C(=O)NC(CO)c2ccccc2)c1 (stereo not shown) [Compound 47]              ≤ 50 nM
 2  O=C(Nc1cnn(-c2ccnc(Nc3ccc4c(c3)OCO4)n2)c1)N[C@H](CO)c1cccc(Cl)c1 [Compound 21]              ≤ 50 nM
 3  O=C(NC(CO)c1ccccc1)c1ccn(-c2nc(Nc3ccc(F)cc3Cl)ncc2C(F)(F)F)c1 (stereo not shown) [Compound 122]            > 2500 nM
 4  Cc1cnc(NC2CCOCC2)nc1-n1cnc(C(=O)NC(CO)c2cccc(C(F)(F)F)c2)c1 (stereo not shown) [Compound 237]              ≤ 50 nM
 5  Cc1cnc(NC2CCNC2)nc1-n1ccc(C(=O)N[C@H](CO)c2cccc(Cl)c2)c1 (stereo partly shown) [Compound 174]              ≤ 50 nM
 6  Cc1cnc(Nc2ccc(F)cc2Cl)nc1-n1cnc(C(=O)NC(CO)c2cccc(Cl)c2)c1 (stereo not shown) [Compound 166]              ≤ 50 nM
 7  C[C@@H](NC(=O)Nc1cnn(-c2ccnc(Nc3ccccc3Cl)n2)c1)c1cccc(Cl)c1 [Compound 10]            > 2500 nM
 8  O=C(N[C@H](CO)c1cccc(Cl)c1)c1cnn(-c2ccnc(Nc3ccccc3)n2)c1 [Compound 53]        100 to 500 nM
 9  Cc1cnc(NC2CC(F)(F)C2)nc1-n1cnc(C(=O)NC(CN)c2cc(F)cc(Cl)c2)c1 (stereo not shown) [Example 278]              ≤ 50 nM
10  Cc1cnc(Nc2cccnc2)cc1-n1ccc(C(=O)NC(CO)c2ccccc2)c1 (stereo not shown) [Compound 81]              ≤ 50 nM
11  Cc1cnc(N[C@H]2CC[C@H](O)CC2)nc1-n1cnc(C(=O)N[C@H](CO)c2cccc(Cl)c2)c1 [Compound 242]              ≤ 50 nM
12  Cc1cnc(Nc2ccc(C3CCNCC3)c(F)c2)nc1-n1ccc(C(=O)NC(CO)c2cccc(Cl)c2)c1 (stereo not shown) [Compound 216]              ≤ 50 nM
13  Cc1cnc(Nc2ccc3c(c2)OCCO3)nc1-n1ccc(C(=O)NC(CO)c2cccc(Cl)c2)c1 (stereo not shown) [Compound 139]              ≤ 50 nM
14  Cc1cn(-c2ccnc(Nc3ccc(F)cc3)n2)cc1C(=O)NC(CO)c1cccc(Cl)c1 (stereo not shown) [Compound 110]              ≤ 50 nM
15  CC(C)C[C@H](CO)Nc1nccc(-n2cc(NC(=O)N[C@H](CO)c3cccc(Cl)c3)cn2)n1 [Compound 13]        100 to 500 nM

All values here come from patent US9896445B2.
